Target: Integrin alpha-5/beta-1 (Homo sapiens, UniProt P05556+P08648)
Sequence (P05556 21-798 limits assumed): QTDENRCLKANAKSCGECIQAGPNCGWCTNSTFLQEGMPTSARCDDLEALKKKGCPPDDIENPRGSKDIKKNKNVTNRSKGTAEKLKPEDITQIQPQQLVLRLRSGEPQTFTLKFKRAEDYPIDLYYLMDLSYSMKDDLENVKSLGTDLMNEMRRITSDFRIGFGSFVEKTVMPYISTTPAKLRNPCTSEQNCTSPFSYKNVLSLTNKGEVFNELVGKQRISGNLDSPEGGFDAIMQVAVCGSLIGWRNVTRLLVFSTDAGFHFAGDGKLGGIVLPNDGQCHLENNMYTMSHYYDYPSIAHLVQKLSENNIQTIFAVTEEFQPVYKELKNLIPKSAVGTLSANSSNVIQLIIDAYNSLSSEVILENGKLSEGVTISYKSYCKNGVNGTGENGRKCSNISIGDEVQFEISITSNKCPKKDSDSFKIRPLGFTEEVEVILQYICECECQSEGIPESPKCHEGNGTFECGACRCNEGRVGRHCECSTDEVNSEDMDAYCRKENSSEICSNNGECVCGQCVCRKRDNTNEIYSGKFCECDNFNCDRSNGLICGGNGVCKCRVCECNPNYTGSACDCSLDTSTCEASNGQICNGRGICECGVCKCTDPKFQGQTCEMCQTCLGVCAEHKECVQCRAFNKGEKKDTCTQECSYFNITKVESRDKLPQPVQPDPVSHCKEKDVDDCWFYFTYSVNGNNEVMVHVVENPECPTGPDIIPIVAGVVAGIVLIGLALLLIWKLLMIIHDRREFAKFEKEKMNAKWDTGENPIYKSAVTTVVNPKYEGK
Sequence (P08648 42-894 limits assumed): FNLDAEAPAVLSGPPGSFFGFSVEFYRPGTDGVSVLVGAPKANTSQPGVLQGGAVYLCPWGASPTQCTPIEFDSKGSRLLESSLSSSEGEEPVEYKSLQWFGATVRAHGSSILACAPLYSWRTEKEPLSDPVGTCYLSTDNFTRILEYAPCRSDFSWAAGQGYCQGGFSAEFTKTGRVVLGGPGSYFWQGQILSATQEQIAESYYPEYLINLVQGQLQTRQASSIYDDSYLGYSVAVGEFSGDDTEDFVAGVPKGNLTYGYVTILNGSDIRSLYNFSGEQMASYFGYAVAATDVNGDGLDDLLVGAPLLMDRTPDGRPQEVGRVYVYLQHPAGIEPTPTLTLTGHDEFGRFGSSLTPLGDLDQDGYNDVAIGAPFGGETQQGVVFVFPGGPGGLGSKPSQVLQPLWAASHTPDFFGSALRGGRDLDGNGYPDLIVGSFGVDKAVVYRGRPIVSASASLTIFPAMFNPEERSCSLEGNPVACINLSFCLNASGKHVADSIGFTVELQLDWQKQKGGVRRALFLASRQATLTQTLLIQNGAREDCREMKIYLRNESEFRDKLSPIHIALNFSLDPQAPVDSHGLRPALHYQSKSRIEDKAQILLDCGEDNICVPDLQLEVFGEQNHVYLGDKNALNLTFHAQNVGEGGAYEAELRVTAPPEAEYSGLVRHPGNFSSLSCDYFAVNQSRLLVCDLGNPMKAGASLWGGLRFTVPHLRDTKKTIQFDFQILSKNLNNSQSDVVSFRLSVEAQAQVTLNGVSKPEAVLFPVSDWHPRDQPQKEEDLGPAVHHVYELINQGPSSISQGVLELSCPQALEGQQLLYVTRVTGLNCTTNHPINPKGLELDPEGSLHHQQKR
Sequence (P08648 895-1049 limits assumed): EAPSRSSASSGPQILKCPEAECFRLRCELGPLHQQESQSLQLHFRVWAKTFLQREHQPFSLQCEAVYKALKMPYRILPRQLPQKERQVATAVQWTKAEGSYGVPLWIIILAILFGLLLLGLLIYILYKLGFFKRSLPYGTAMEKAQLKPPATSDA
Assay: Cell Adhesion Assay: Evaluation of cell attachment to extracellular matrix proteins was performed as previously described by Yokosaki et al, J. Biol. Chem., 271: (39): 24144-24150 (1996). Briefly, wells of non-tissue culture-treated polystyrene 96-well flat-bottom microtiter plates (Linbro/Titertek, Flow Laboratories, McLean, Va.) were coated by incubation with 100 μl of each substrate in PBS at 37° C. for 1 hour. 96-well flat-bottomed tissue culture plates were coated with human plasma fibronectin for 1 hour at 37° C. After incubation, wells were washed with PBS, then blocked with 1% bovine serum albumin (BSA) for one hour. Control wells were filled with 1% BSA. SW480 cells were detached using 10 mM EDTA and resuspended in serum-free DMEM. For blocking experiments, cells were incubated with 10 μg/ml of the antibody for 15 minutes at 4° C. before plating. The plates were centrifuged at 10 g for 5 minutes before incubation for 1 hour at 37° C. in humidified 5% CO2. Nonadherent cells were removed by centrifugation (top side down) at 10 g for 5 minutes. Attached cells were stained with 0.5% crystal violet, and the wells were washed with PBS. The relative number of cells in each well was evaluated after solubilization in 40 μl of 2% Triton X-100 by measuring absorbance at 595 nm in a microplate reader. All determinations were carried out in triplicate.
pIC50: −log10 of the molar value.
Please respond with reported pIC50 for every item in the list.

Here are 2 compounds together with their reported answers.
Compound	pIC50
O=C(CNC(=O)c1cccc(NC2=NCC(O)CN2)c1)NC[C@H](NC(=O)c1c(Cl)cc(-c2ccccc2)cc1Cl)C(=O)O (stereo partly drawn)	> 7.00
N#Cc1cc(NC(=N)N)cc(C(=O)NCC(=O)NC[C@H](NC(=O)c2c(Cl)cc(-c3ccccc3)cc2Cl)C(=O)O)c1	> 7.00

Here is the next item to consider.
query: Which measured pIC50 value corresponds to `O=C(CNC(=O)c1cccc(NC2=NCCCO2)c1)NC[C@H](NC(=O)c1c(Cl)cc(-c2ccccc2)cc1Cl)C(=O)O` ?
result: > 7.00
